# experimentalSystem: cyclophilin A (UniProt P62937 1-165)
# protocolDetails: NMR titration
pKd: −log10 of the molar value.
quantityMeasured: pKd

INSERT INTO measurements (binder, quantitymeasured, obsvalue) VALUES
  ('GSHLAALWPFLG [CD147^10mer peptide (CD147 residues 205–214)]', 'pKd', 2.38);
